- Assay notes: Plasma cholesterol and triglycerides in C57BL/6 mice (Olympus AU400e)
- Type: in vivo, mouse
- Condition summary: Week 3, 50 mg/kg/week
Oligonucleotides are written 5' to 3', each unit as a sugar letter and its base; * is a phosphorothioate linkage, no mark a phosphodiester; rarer units and linkages stand in square brackets, end groups in braces. Plain capitals give the bases only. e = 2'-O-(2-methoxyethyl) (MOE); [5mC] = 5-methylcytosine; d = 2'-deoxy (DNA)
Metric: LDL cholesterol levels (mg/dL)
// note: answer is a bare numeric in mg/dL

Below are worked cases with known answers.
>  <Residue string>
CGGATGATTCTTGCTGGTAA (antisense e[5mC]*eG*eG*eA*eT*dG*dA*dT*dT*d[5mC]*dT*dT*dG*d[5mC]*dT*eG*eG*eT*eA*eA) [ISIS 447114]

>  <Metric>
LDL cholesterol levels

>  <Readout value>
12

$$$$
>  <Residue string>
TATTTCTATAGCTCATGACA (antisense eT*eA*eT*eT*eT*d[5mC]*dT*dA*dT*dA*dG*d[5mC]*dT*d[5mC]*dA*eT*eG*eA*e[5mC]*eA) [ISIS 447144]

>  <Metric>
LDL cholesterol levels

>  <Readout value>
14

$$$$
>  <Residue string>
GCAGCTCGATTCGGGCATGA (antisense eG*e[5mC]*eA*eG*e[5mC]*dT*d[5mC]*dG*dA*dT*dT*d[5mC]*dG*dG*dG*e[5mC]*eA*eT*eG*eA) [ISIS 447118]

>  <Metric>
LDL cholesterol levels

>  <Readout value>
13

$$$$

Could you now look at the following sequence, please?
Query: Provide LDL cholesterol levels value for the following sequence: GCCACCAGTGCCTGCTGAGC (antisense eG*e[5mC]*e[5mC]*eA*e[5mC]*d[5mC]*dA*dG*dT*dG*d[5mC]*d[5mC]*dT*dG*d[5mC]*eT*eG*eA*eG*e[5mC]) [ISIS 447143]
Result: 14
